Measured pKd by item
molecular target: cyclophilin A (CYPA) (Homo sapiens, UniProt P62937); test: CYPA-compound binary complex formation by SPR; conditions: read-out: CYPA Binding Affinity
Sequence (P62937 whole entry): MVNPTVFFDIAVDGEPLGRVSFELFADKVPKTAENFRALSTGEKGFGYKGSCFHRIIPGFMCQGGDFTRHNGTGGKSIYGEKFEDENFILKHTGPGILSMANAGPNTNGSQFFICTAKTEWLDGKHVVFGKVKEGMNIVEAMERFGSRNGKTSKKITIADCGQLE
pKd: −log10 of the molar value.

molecule: CCN1CCCN2C[C@H](C)COC(=O)[C@@H]3CCCN(N3)C(=O)[C@@H](NC(=O)[C@H](C(C)C)N(C)C(=O)C3CN(C(=O)CCl)C3)Cc3cc(O)cc(c3)-c3ccc1c2c3
pKd: 4.82 to 5.30
//
molecule: Cc1nc2ccc3cc2n1CC(O)COC(=O)C1CCCN(N1)C(=O)C(NC(=O)C(C(C)C)N(C)C(=O)C1CN(C(=O)CCl)C1)Cc1cc(O)cc-3c1 (mixture of isomers)
pKd: 4.82 to 5.30
//
molecule: CCN(C(=O)C1CN(C(=O)CCl)C1)[C@H](C(=O)N[C@H]1Cc2cc(O)cc(c2)-c2ccc3c(C(C)(C)C#N)cn(c3c2)CC(C)(C)COC(=O)[C@@H]2CCCN(N2)C1=O)C(C)C
pKd: < 4.82
//
molecule: COc1ccccc1-c1nc2ccc3cc2n1CCCOC(=O)[C@@H]1CCCN(N1)C(=O)[C@@H](NC(=O)[C@H](C(C)C)N(C)C(=O)C1CN(C(=O)CCl)C1)Cc1cc(O)cc-3c1
pKd: ≥ 5.30
//
molecule: CC(C)[C@@H](C(=O)N[C@H]1Cc2cc(O)cc(c2)-c2ccc3c(C(C)(C)C#N)cn(c3c2)CC(CC#N)COC(=O)[C@@H]2CCCN(N2)C1=O)N(C)C(=O)C1CN(C(=O)CCl)C1 (stereo partly drawn)
pKd: 4.82 to 5.30
//
molecule: C=CC(=O)N1CCN([C@H](C(=O)N[C@H]2Cc3cc(O)cc(c3)-c3ccc4cnn(c4c3)CC(C)(C)COC(=O)[C@@H]3CCCN(N3)C2=O)C(C)C)C1=O
pKd: 4.82 to 5.30
//
molecule: C=CC(=O)N1CCC(C(=O)N(C)C(C(=O)NC2Cc3cc(O)cc(c3)-c3ccc4c(c3)c(c(C#N)n4CC)CC(C)(C)COC(=O)C3CCCN(N3)C2=O)C2CCCC2)C1 (stereo not drawn)
pKd: ≥ 5.30
//
molecule: CC(C)[C@@H](C(=O)N[C@H]1Cc2cc(O)cc(c2)-c2ccc3c(C(C)(C)C#N)cn(c3c2)CC(CO)COC(=O)[C@@H]2CCCN(N2)C1=O)N(C)C(=O)C1CN(C(=O)CCl)C1 (single isomer, unassigned) [Compound 21]
pKd: < 4.82
//
molecule: Cc1nc2ccc3cc2n1CC1(CC1)COC(=O)[C@@H]1CCCN(N1)C(=O)[C@@H](NC(=O)[C@H](C(C)C)N(C)C(=O)C1CN(C(=O)CCl)C1)Cc1cc(O)cc-3c1
pKd: 4.82 to 5.30
//
molecule: Cc1c(C#N)c2ccc3cc2n1CC(C)(C)COC(=O)[C@@H]1CCCN(N1)C(=O)[C@@H](NC(=O)[C@H](C(C)C)N(C)C(=O)C1CN(C(=O)CCl)C1)Cc1cc(O)cc-3c1
pKd: 4.82 to 5.30
//
molecule: C=CC(=O)N1CCN([C@H](C(=O)N[C@H]2Cc3cc(O)cc(c3)-c3ccc4nc(C)n(c4c3)CC(C)(C)COC(=O)[C@@H]3CCCN(N3)C2=O)C(C)C)C1=O
pKd: 4.82 to 5.30
//
molecule: Cc1nc2ccc3cc2n1CC(C)(C)COC(=O)[C@@H]1CCCN(N1)C(=O)[C@@H](NC(=O)[C@H](C(C)C)N1CCN(C(=O)CCl)CC1=O)Cc1cc(O)cc-3c1
pKd: 4.82 to 5.30

The reported measurements were obtained from patent US20240139185A1.
